target: Prolyl endopeptidase (Homo sapiens, UniProt P48147); assay: Inhibition of prolyl oligopeptidase in intact human LN229 cells assessed as blockade of Z-Gly-Pro-AMC substrate hydrolysis by fluorimetric assay; type: cell-based
Measurement kind: IC50 (µM)
# value in µM; strip the unit string

Request: Which value of IC50 has been reported for N#C[C@@H]1CS[C@H]2C[C@@H](NC(=O)OCc3ccccc3)C(=O)N12 in the records?
Response: 2

---

Biological target: Prolyl endopeptidase (Homo sapiens) (UniProt P48147)
Sequence (whole entry): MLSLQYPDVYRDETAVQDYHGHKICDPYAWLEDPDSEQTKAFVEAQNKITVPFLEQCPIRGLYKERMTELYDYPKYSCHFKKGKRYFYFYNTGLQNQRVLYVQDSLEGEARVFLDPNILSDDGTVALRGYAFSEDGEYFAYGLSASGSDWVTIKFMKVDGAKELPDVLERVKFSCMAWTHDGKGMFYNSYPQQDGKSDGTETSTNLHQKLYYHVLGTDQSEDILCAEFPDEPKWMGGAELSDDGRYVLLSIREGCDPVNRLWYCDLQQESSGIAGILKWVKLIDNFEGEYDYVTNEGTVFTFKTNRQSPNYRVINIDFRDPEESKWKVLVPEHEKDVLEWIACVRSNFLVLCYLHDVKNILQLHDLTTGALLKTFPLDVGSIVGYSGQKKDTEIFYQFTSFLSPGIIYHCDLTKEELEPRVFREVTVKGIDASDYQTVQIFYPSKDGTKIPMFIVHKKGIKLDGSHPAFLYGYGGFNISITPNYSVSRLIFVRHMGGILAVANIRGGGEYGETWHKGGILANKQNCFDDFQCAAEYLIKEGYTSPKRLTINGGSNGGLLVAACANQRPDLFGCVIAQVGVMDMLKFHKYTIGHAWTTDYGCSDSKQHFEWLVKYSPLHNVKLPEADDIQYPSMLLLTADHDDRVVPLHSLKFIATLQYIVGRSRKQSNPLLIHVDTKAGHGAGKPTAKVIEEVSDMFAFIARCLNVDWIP
Experiment: Inhibition of prolyl oligopeptidase in human brain derived endothelial cell extracts assessed as blockade of Z-Gly-Pro-AMC substrate hydrolysis at 100 uM by fluorimetric assay
Format: cell-free
Recorded measurements of inhibition, one per entry

{"Compound": "N#C[C@@H]1CS[C@H]2C[C@H](NC(=O)OCc3ccccc3)C(=O)N12", "Study system": "Prolyl endopeptidase (Homo sapiens) (UniProt P48147)", "Data value": "> 50%"}
{"Compound": "N#C[C@@H]1CS[C@H]2CC[C@@H](NC(=O)OCc3ccccc3)C(=O)N12", "Study system": "Prolyl endopeptidase (Homo sapiens) (UniProt P48147)", "Data value": "> 50%"}
{"Compound": "N#C[C@H]1CS[C@@H]2C[C@H](NC(=O)OCc3ccccc3)C(=O)N12", "Study system": "Prolyl endopeptidase (Homo sapiens) (UniProt P48147)", "Data value": "10%"}
{"Compound": "N#C[C@H]1CS[C@@H]2C[C@@H](NC(=O)OCc3ccccc3)C(=O)N12", "Study system": "Prolyl endopeptidase (Homo sapiens) (UniProt P48147)", "Data value": "> 50%"}

// next entry
Request: Form field: inhibition recorded for C[C@H]1O[C@H]2C[C@H](NC(=O)OCc3ccccc3)C(=O)N2[C@@H]1C#N with Prolyl endopeptidase (Homo sapiens) (UniProt P48147) (enter value)
Response: 10%
